- TGT: T1, 4H953-bA
- T1 chain: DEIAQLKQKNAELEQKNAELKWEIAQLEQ
- PROTOCOL TEXT: two-hybrid library CCNG1;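 also: natural log of median RNA to DNA barcode read ratio; higher means stronger binding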
Threshold rule: interaction score greater than or equal to -0.6 is Criterion met; below that, Criterion not met.

DEIAQLKQKIAELEQENAELKWKIAQLEQ [4H797-bA] :: Criterion not met
DKIAQLKQEIAELKQKIAELKWENAQLEQ [4H2667-bA] :: Criterion not met
DKNAQLKQKNAELKQKIAELKWEIAQLEQ [4H4073-bA] :: Criterion not met

Ask: interaction score >= -0.6 for DENAQLKQKIAELEQKIAELEWENAQLKQ [4H1828-bA] ?
Reply: Criterion met

Ask: Assess whether reported interaction score for DKIAQLKQEIAELKQEIAELEWENAQLEQ [4H2627-bA] sits at -0.6 or higher.
Reply: Criterion met

Ask: Test whether the binder DEIAQLKQKNAELEQKNAELKWEIAQLEQ [4H953-bA] records interaction score of -0.6 or higher.
Reply: Criterion not met

Ask: Is interaction score for DKIAQLEQKNAELEQEIAELKWEIAQLKQ [4H2442-bA] at or above -0.6?
Reply: Criterion not met

Ask: Quick check, interaction score >= -0.6? DENAQLEQKNAELEQKIAELEWKIAQLKQ [4H1446-bA]
Reply: Criterion met

Ask: Does the binder DKIAQLKQEIAELEQKNAELEWEIAQLKQ [4H2610-bA] have recorded interaction score that is -0.6 or more?
Reply: Criterion met
